- assayProcedure: yeast display, Sf9 membrane polyspecificity reagent, FACS + sequencing; frameworks hold sequencing errors

{"sequenceRecord": "QVQLVESGGGLVQAGGSLRLSCAASGSIIGRYAMGWYRQAPGKERELVAAISTGGGRTYYADSVKGRFTISRDSAKNTVYFQLNSLKPEDTAVYYCNAGPYKGWGRMDYWGQGTQVNVSS", "polyreactivity (PSR sort gate)": "high polyreactivity"}
{"sequenceRecord": "QVQLVESGGGLVQAGGSLRLSCAASGRTFYKNTMGWYRQAPGKERELVATISQRRGSTYYADSVKGRFTISRDNAKNTVYLQMNSLKTEDTAVYYCNARKYTQSIHYDYWGQGTQVTVSS", "polyreactivity (PSR sort gate)": "high polyreactivity"}
